# test-details: DPPH radical assay
Please respond with reported # of DDPH• reduced per antioxidant molecule (1/stoichiometry) for every item in the list.
Numbers only.

Batch: # of DDPH• reduced per antioxidant molecule (1/stoichiometry) for all items listed.
1. COc1cc(C=O)cc(OC)c1O
2. Cc1c(C)c2c(c(C)c1O)CCC(C)(C(=O)O)O2 (stereo not shown)
3. O=C1O[C@H]([C@@H](O)CO)C(O)=C1O
4. COc1cc(CN(Cc2ccc(CN(Cc3cc(OC)c(O)c(OC)c3)Cc3cc(OC)c(O)c(OC)c3)cc2)Cc2cc(OC)c(O)c(OC)c2)cc(OC)c1O

1: 0.33; 2: 1.8; 3: 1.8; 4: 8.8
